// E. carotovora LC50 records
Respond with the bare value in ppm.

Form entry - test system: E. carotovora; read-out: LC50; compound: [H]/N=C(/N)N[C@H]1[C@H](O)[C@@H](O)[C@H](O[C@@H]2O[C@@H](C)[C@](O)(C=O)[C@H]2O[C@@H]2O[C@@H](CO)[C@H](O)[C@@H](O)[C@@H]2NC)[C@@H](N/C(N)=N\[H])[C@@H]1O [Streptomycin, reference compound]
4.519

// query: `O=C(O)c1cn(C2CC2)c2ccccc2c1=O`
5.284

Repeat with `O=C(O)c1cn(C2CC2)c2nc(N3CCNCC3)c(F)cc2c1=O`
0.00018

// next record `O=C(O)c1cn(C2CC2)c2nc(Cl)c(F)cc2c1=O`
4.040

How about `CCn1cc(C(=O)O)c(=O)c2ccc(C)nc21` ?
15.743

Please do the same for `CCn1cc(C(=O)O)c(=O)c2cc(F)c(Cl)nc21` as well.
0.264

* * *

System: E. coli
endpoint name: LC50

What measured LC50 goes with O=C(O)c1cn(C2CC2)c2nc(N3CCNCC3)c(F)cc2c1=O [Compound I44] ?
0.0000091 ppm

Quick one: O=C(O)c1cn(C2CC2)c2nc(Cl)c(F)cc2c1=O [Compound I40]
0.064 ppm

Follow-up item: [H]/N=C(/N)N[C@H]1[C@H](O)[C@@H](O)[C@H](O[C@@H]2O[C@@H](C)[C@](O)(C=O)[C@H]2O[C@@H]2O[C@@H](CO)[C@H](O)[C@@H](O)[C@@H]2NC)[C@@H](N/C(N)=N\[H])[C@@H]1O [Streptomycin, reference compound]
1.918 ppm

How about this compound: CCn1cc(C(=O)O)c(=O)c2ccc(C)nc21 [Compound I36]
37.917 ppm

Further, for CCn1cc(C(=O)O)c(=O)c2cc(F)c(Cl)nc21 [Compound I38] ?
12.643 ppm

How about O=C(O)c1cn(C2CC2)c2ccccc2c1=O [Compound I2] ?
0.913 ppm

* * *

Test system: R. solanacearum
LC50 strictly under 10 ppm means 1; at 10 ppm or over means -1.

I wonder whether `CCn1cc(C(=O)O)c(=O)c2cc(F)c(Cl)nc21` has LC50 below 10 ppm. Can you tell?
-1

Another compound to look at: `O=C(O)c1cn(C2CC2)c2nc(N3CCNCC3)c(F)cc2c1=O`
1

Now consider `CCn1cc(C(=O)O)c(=O)c2ccc(C)nc21` and answer again.
-1

And for [H]/N=C(/N)N[C@H]1[C@H](O)[C@@H](O)[C@H](O[C@@H]2O[C@@H](C)[C@](O)(C=O)[C@H]2O[C@@H]2O[C@@H](CO)[C@H](O)[C@@H](O)[C@@H]2NC)[C@@H](N/C(N)=N\[H])[C@@H]1O [Streptomycin, reference compound] ?
1

Entry to check: `O=C(O)c1cn(C2CC2)c2nc(Cl)c(F)cc2c1=O`
1

Repeat for the following compound: `O=C(O)c1cn(C2CC2)c2ccccc2c1=O`
-1

The reported numbers originate from patent US20240215578A1.
